method summary: self-splicing fitness, log relative to wild type (ln ratio); higher = more splicing; Tetrahymena group I intron in knt gene, E. coli kanamycin selection, DiMSum; sequences stand for … in CUCUCU…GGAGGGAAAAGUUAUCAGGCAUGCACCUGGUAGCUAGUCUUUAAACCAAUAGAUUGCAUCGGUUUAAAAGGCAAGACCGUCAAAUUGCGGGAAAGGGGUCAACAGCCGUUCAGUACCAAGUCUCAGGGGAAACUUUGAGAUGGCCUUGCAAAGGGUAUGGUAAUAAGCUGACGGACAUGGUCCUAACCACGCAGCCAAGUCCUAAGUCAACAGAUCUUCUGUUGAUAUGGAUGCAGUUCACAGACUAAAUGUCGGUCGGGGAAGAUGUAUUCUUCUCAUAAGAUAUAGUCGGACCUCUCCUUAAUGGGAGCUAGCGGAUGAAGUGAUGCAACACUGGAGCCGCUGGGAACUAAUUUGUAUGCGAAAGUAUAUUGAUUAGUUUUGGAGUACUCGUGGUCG;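 note: selection with 25 µg/mL kanamycin versus none on LB agar overnight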
test settings: 30 °C
Note: every record was labeled by where its self-splicing fitness (ln) sits among lowest (below -3), middle (-3 to below -1), highest (-1 or more)

AUCCAGCAAUAUUACGGCGC
highest
AAUCAGCAAUAUUACGUGAC
middle
UAGGAGCAAUAUUACGUAGU
lowest
GAAAAGCAAUAUUACGCAGU
lowest
GUUUAGCAAUAUUACGUUAU
middle
GUCCAGCAAUAUUACGACUG
lowest
GGCAAGCAAUAUUACGGCUC
middle
CGAUAGCAAUAUUACGUAGC
lowest

Which class is correct for the following sequence? AGGUAGCAAUAUUACGGACA highest

Class label required: UGGAAGCAAUAUUACGACUU highest

In plain terms, what class is UAGCAGCAAUAUUACGACUG ? highest

Which class is correct for the following sequence? GGUAAGCAAUAUUACGUGUU middle

Using the reported self-splicing fitness (ln), which band applies to UGGUAGCAAUAUUACGUAAU ? middle

Would you mind sorting UGCAAGCAAUAUUACGGUUA into the appropriate category? highest

Hi, small favor: classify UAACAGCAAUAUUACGCGAA by its self-splicing fitness (ln) when you get a moment. middle

====

method summary: self-splicing fitness, log relative to wild type (ln ratio); higher = more splicing; Tetrahymena group I intron in knt gene, E. coli kanamycin selection, DiMSum; sequences stand for … in CUCUCU…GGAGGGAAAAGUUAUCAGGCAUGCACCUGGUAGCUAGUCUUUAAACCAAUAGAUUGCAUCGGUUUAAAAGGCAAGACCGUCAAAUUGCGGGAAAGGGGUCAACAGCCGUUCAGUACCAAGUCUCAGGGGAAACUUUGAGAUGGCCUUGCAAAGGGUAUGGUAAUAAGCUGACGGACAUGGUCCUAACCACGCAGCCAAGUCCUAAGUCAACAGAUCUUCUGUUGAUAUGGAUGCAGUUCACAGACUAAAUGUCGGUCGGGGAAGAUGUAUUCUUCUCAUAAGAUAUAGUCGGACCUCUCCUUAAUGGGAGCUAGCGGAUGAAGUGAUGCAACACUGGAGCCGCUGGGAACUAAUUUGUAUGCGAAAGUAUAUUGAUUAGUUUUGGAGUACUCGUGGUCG
test settings: 30 °C
reported endpoint: self-splicing fitness (ln)
Please respond with just the number, no unit label.

ACCCAGCAAUAUUACGCGGA
-0.326
CUCAAGCAAUAUUACGCUAA
-3.13
ACUGAGCAAUAUUACGUUUA
-2.52
CCAGAGCAAUAUUACGCUUU
-3.36
CGUAAGCAAUAUUACGGCCU
-3.28

Consider GAGUAGCAAUAUUACGCACC . Its measured self-splicing fitness (ln) is -0.317

The sequence listed as AGCAAGCAAUAUUACGCAGC has a reported self-splicing fitness (ln) of -2.98

Measured self-splicing fitness (ln), AGUAAGCAAUAUUACGCUGA : -1.98

====

method summary: self-splicing fitness, log relative to wild type (ln ratio); higher = more splicing; Tetrahymena group I intron in knt gene, E. coli kanamycin selection, DiMSum; sequences stand for … in CUCUCU…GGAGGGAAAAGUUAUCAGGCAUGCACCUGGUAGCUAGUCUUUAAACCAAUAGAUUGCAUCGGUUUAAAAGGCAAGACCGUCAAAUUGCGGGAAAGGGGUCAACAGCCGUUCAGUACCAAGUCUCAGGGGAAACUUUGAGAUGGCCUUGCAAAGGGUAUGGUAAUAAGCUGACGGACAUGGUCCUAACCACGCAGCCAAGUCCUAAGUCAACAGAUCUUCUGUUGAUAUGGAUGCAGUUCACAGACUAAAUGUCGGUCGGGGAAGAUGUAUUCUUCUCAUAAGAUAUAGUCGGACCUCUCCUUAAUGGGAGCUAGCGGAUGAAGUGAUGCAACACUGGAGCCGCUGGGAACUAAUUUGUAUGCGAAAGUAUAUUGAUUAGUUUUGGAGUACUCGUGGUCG
test settings: 37 °C
self-splicing fitness (ln) overview
The answer should be a number; do not append a unit.

// solved cases for self-splicing fitness (ln) follow
UCUCAGCAAUAUUACGGGCU
-2.43
UUGGAGCAAUAUUACGAGUU
-3.45
AACCAGCAAUAUUACGCACC
0.308

The sequence CGACAGCAAUAUUACGACAU showed self-splicing fitness (ln) equal to -1.33

Item: AAUCAGCAAUAUUACGAAUG | self-splicing fitness (ln): -0.488

# self-splicing fitness (ln) (sequence: AGUCAGCAAUAUUACGGCGU ) is 0.74

GET /value?item= GAGUAGCAAUAUUACGGCUC &field=self-splicing fitness (ln) returns -2.51

====

method summary: self-splicing fitness, log relative to wild type (ln ratio); higher = more splicing; Tetrahymena group I intron in knt gene, E. coli kanamycin selection, DiMSum; sequences stand for … in CUCUCU…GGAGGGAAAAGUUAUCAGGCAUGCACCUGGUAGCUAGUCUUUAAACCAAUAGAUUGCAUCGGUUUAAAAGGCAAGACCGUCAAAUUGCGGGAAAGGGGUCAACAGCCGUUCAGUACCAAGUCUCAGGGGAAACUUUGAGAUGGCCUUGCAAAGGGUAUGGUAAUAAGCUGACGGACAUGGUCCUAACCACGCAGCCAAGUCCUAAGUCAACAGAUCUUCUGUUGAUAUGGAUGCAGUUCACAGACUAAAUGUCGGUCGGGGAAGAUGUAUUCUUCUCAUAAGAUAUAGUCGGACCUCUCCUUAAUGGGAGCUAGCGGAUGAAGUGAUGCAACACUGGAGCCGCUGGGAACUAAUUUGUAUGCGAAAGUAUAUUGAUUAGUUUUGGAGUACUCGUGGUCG
test settings: 37 °C
reported endpoint: self-splicing fitness (ln)
No unit in the answer, only the number.

# annotated cases, reported self-splicing fitness (ln) shown
AGGAAGCAAUAUUACGAGGC
-2.31
ACGUAGCAAUAUUACGGGCA
-0.418
CCAAAGCAAUAUUACGCGGG
-1.38
AGCUAGCAAUAUUACGUGGG
-2.72
ACGUAGCAAUAUUACGCGUG
-0.962

The value of self-splicing fitness (ln) measured for the sequence CGGUAGCAAUAUUACGGUGG turned out to be -0.124

Reported self-splicing fitness (ln) ( UCGAAGCAAUAUUACGACGA ) = -0.374

// self-splicing fitness (ln) lookup, sequence = AAGAAGCAAUAUUACGCCAA , result: -1.04

Just so you know, measured self-splicing fitness (ln) for UCCCAGCAAUAUUACGGUAU came out at -0.809

Data point: GGGCAGCAAUAUUACGCCGC ; self-splicing fitness (ln) = -2.27

====

method summary: self-splicing fitness, log relative to wild type (ln ratio); higher = more splicing; Tetrahymena group I intron in knt gene, E. coli kanamycin selection, DiMSum; sequences stand for … in CUCUCU…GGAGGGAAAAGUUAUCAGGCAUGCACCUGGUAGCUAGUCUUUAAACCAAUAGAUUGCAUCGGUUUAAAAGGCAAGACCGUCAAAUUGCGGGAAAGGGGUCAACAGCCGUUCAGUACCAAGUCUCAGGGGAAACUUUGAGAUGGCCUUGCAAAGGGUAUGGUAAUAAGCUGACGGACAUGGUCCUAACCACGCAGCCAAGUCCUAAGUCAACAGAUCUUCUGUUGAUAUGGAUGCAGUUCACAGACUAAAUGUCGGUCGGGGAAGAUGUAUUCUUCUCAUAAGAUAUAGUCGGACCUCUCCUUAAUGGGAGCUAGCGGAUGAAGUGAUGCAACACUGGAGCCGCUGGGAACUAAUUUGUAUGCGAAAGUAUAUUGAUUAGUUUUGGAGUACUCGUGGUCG
test settings: 30 °C
Heads up, the class ranges for self-splicing fitness (ln) are low bin: < -2; mid bin: ≥ -2 and < -1; high bin: ≥ -1

Could you place AUACAGCAAUAUUACGUACU in its proper category? Many thanks. high bin

Hello team, could you let me know which band the following sequence falls into: ACGGAGCAAUAUUACGCCGG mid bin

Which category does the recorded self-splicing fitness (ln) put CGGAAGCAAUAUUACGACCA in? high bin

Which bin should I file AGCCAGCAAUAUUACGGUCG under? high bin

Input AAUAAGCAAUAUUACGUUCU ; output its category high bin

Categorize the following entry: GCGGAGCAAUAUUACGAGUU low bin

Please report the category associated with AUCCAGCAAUAUUACGACUG , nothing else. low bin

Lab log: UGUUAGCAAUAUUACGAUAU — assign self-splicing fitness (ln) category low bin

Where would CUCAAGCAAUAUUACGGUUA land among the classes by reported self-splicing fitness (ln)? low bin
